test system: Fibrinogen (Alexa647-labelled); assay: Alexa647-fibrinogen binding to printed small molecules – biochemical, small-molecule microarray, 635/667 nm fluorescence, artefact control for SMM control-protein annotation, profiling panel (AID 1131); conditions: fibrinogen-A647 binding fluorescence, higher = more signal;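 further: z-score merges 667 nm fluorescence with per-spot signal-to-noise over triplicate slides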
Recorded metric: composite z-score

molecule=COc1ccc([Si](C)(C)[C@H]2[C@H](CC(=O)N3CCC[C@H]3CO)O[C@@]3(C(=O)N(Cc4ccc(N5C(=O)c6cccc7cccc5c67)cc4)c4ccccc43)[C@@H]2C)cc1 reported_result=0.864
molecule="CCN(CC)c1ccc(N2CC=CC34O[C@@H]5/C=C\\CCCOC(=O)C5[C@H]3C(=O)N(CCCCCO)[C@@H]4C2=O)cc1 (stereo partly drawn)" reported_result=-2.57
molecule=CC(C)CNC(=O)[C@@]1(C)c2ccccc2C(=O)N(Cc2ccccc2)[C@H]1c1ccc(CO)cc1 reported_result=-1.84
molecule=C=C(COC)/C(=C/C[C@@H](OC(=O)c1ccncc1)c1cccc(OCCO)c1)c1cc(C(=O)OC)ccc1OC reported_result=0.199
molecule=COCCOC(=O)N1C(=O)[C@@]2(c3cc(C#CCNC(N)=O)ccc31)[C@H](C(=O)N1CCCCCCC1)[C@H]1C(=O)O[C@H](c3ccccc3)[C@H](c3ccccc3)N1[C@@H]2c1ccc(OCCO)cc1 reported_result=0.577
molecule=[N-]=[N+]=Nc1ccccc1[C@@H]1OC(c2ccc(OCCCO)cc2)=N[C@]1(CCS(=O)(=O)c1ccccc1)C(=O)NCc1ccccc1 reported_result=0.982
molecule=COC(=O)[C@H]1N=C(c2ccc(OCCCO)cc2)O[C@H]1c1ccccc1CN=[N+]=[N-] reported_result=0.825
molecule=[N-]=[N+]=NCc1ccccc1[C@H]1OC(c2ccc(OCCCO)cc2)=N[C@@]1(Cc1ccccc1N=[N+]=[N-])C(=O)NCCN1CCOCC1 reported_result=0.981
molecule="C=CCC(OC(C)=O)[C@@H]1[C@@H](N(Cc2cc3ccccc3o2)C(=O)Cc2ccc(OC)cc2)c2cc(OCCCO)ccc2N1C(=O)c1ccc(-c2ccccc2)cc1 (stereo partly drawn)" reported_result=-0.203
molecule=COCCCNC(=O)[C@@H]1c2ccccc2C(=O)N(Cc2cc(F)cc(C(F)(F)F)c2)[C@H]1c1ccc(CO)cc1 reported_result=-1.81
molecule=COCCOC(=O)N1C(=O)[C@@]2(c3cc(C#CCCO)ccc31)[C@H](C(=O)N1CCc3cc(OC)c(OC)cc3C1)[C@H]1C(=O)O[C@H](c3ccccc3)[C@H](c3ccccc3)N1[C@@H]2c1ccc(OCCO)cc1 reported_result=0.786
molecule="CCOc1cc(C(O)C2C=CC3C(=O)NC(=O)C3N2Nc2ccccn2)ccc1O (stereo not drawn)" reported_result=-0.32
molecule="C=CCC(OC(C)=O)[C@@H]1[C@@H](N(Cc2cccc3ccccc23)C(=O)Cc2ccc(F)cc2)c2cc(OCCCO)ccc2N1C(=O)Cc1ccc(OC)cc1 (stereo partly drawn)" reported_result=0.766

Source listed as PubChem BioAssay.
